Biological target: CAMK2D (human) (UniProt Q13557)
Sequence (Q13557 whole entry, looked up): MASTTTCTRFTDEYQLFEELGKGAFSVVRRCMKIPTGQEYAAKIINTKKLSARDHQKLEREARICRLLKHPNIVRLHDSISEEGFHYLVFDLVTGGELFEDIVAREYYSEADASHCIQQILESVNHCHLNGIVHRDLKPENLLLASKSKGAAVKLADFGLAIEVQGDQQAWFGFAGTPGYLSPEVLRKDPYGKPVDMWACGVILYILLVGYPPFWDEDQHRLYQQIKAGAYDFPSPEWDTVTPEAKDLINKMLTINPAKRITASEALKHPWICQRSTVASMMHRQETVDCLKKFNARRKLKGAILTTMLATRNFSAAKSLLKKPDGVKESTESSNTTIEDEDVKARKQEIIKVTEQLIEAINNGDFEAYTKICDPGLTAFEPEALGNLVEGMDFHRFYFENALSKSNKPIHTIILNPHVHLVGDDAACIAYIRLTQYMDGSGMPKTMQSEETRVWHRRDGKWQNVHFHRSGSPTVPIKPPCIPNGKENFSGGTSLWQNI
Test: radiometric filter-binding kinase assay, Kinase HotSpot
Conditions: compound 0.5 µM; ATP 10 µM
PROPERTY_MEASURED: residual activity (%)
Give the quantity in %, number only.

Please review the following examples before continuing.
STRUCTURE_AS_SMILES: CCN(CC)CCNC(=O)c1c(C)[nH]c(/C=C2\C(=O)Nc3ccc(F)cc32)c1C
OBS_VALUE: 11.6
//
STRUCTURE_AS_SMILES: c1ccc(-c2n[nH]c3c2oc2ccccc23)cc1
OBS_VALUE: 94.5
//
STRUCTURE_AS_SMILES: Cc1ccc(NC2=CC(=O)c3sc(C)nc3C2=O)cc1
OBS_VALUE: 93.2

Query residual activity for `CCN(CC)C(=O)c1ccc(Nc2nc(OCC3CCCCC3)c3nc[nH]c3n2)cc1`
94.5

# return recorded residual activity for entry `Oc1cccc(-c2nc(N3CCOCC3)c3oc4ncccc4c3n2)c1`
96.2

Please indicate residual activity recorded for `O=C1NC(=O)c2c1c1c3ccccc3n3c1c1c2c2ccccc2n1C1CCC3O1`
7.03

Give the reported residual activity for this compound. `Nc1ncnc2[nH]nc(Nc3ccc(F)cc3)c12`
92.5

Data origin, for the record: the kinase profiling compilation of Christmann-Franck et al. (2016)
